- Tested on: human androgen receptor (Homo sapiens)
- Construct: expressed in transfected cells; host or cells: HEK293
- Measurement protocol: Reporter assay of an androgen receptor responsive sequence (luciferase, transiently transfected HEK293 cells)
- Assay type: cell-based
- Cond: 24 hours incubation, relative to activity of 100 nM DHT, read-out: AR transcriptive activity (pEC50) (converted)
Measure: EC50 (µM)
Express the result in µM but write the number alone.

Ask | Tell me measured EC50 for `Cc1sc(N(CCCC(C)C)c2ccc(C#N)cc2)nc1C(=O)NS(C)(=O)=O` please.
Reply | 0.398

Ask | Tell me measured EC50 for `CCc1oc(N(Cc2ccc(Br)c(F)c2)c2ccc(C#N)cc2)nc1C(=O)NS(C)(=O)=O` please.
Reply | 0.158

Ask | Tell me measured EC50 for `Cc1oc(N(CCc2ccc(OC(F)(F)F)cc2)Cc2ccc(Cl)cn2)nc1C(=O)NS(C)(=O)=O` please.
Reply | 3.16

Ask | Tell me measured EC50 for `Cc1sc(N(Cc2ccc(OC(F)F)c(F)c2)c2ccc(C#N)cc2)nc1C(=O)NS(C)(=O)=O` please.
Reply | 0.0316

Ask | Tell me measured EC50 for `Cc1sc(N(CCc2ccc(Cl)cc2)Cc2cccc(Cl)c2)nc1C(=O)NS(C)(=O)=O` please.
Reply | 0.0631

Ask | Tell me measured EC50 for `Cc1sc(N(Cc2cc(F)cc(C(F)(F)F)c2)c2ccc(C#N)cc2)nc1C(=O)NS(C)(=O)=O` please.
Reply | 0.158

Ask | Tell me measured EC50 for `Cc1sc(N(Cc2cccc(N3CCCCC3)c2)c2ccc(C#N)cc2)nc1C(=O)NS(C)(=O)=O` please.
Reply | 3.16

Ask | Tell me measured EC50 for `Cc1sc(N(Cc2ccccc2)c2ccc3nccnc3c2)nc1C(=O)NS(C)(=O)=O` please.
Reply | 1.26

---

- Tested on: androgen receptor (AR-LBD) (Rattus norvegicus, UniProt P15207)
- Construct: 5 μL of 2×AR-LBD/Fluoromone AL Red Complex contained in the kit; purchased Invitrogen
- Sequence (P15207 651-882 limits assumed): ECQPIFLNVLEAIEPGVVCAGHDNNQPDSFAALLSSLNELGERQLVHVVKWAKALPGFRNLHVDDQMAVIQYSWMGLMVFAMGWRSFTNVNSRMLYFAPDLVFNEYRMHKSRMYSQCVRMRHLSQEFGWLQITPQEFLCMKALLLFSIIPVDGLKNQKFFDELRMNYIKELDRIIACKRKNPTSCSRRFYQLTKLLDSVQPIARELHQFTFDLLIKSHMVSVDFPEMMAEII
- Measurement protocol: Evaluation of androgen receptor affinity (PolarScreen Androgen Receptor Competitor Assay Kit, Red; fluorescence polarization)
- Cond: 22° C. for 5 hours, relative to binding rate of 1 μM DHT, read-out: AR affinity (pEC50) (converted)
- Protocol: Evaluation of an Androgen Receptor Affinity To examine the interaction of a compound with an androgen receptor, evaluation was carried out in accordance with the following procedure using PolarScreen™ Androgen Receptor Competitor Assay Kit, Red (Invitrogen). To 2 wells each of a 384 well black plate was added 5 μL of the compound solution. […] After 5 hours of the reaction, fluorescence polarization was measured and the affinity was evaluated. […]
Labelling: EC50 reported below 100 nM becomes Criterion met; at or above becomes Criterion not met.

Ask | Record `Cc1sc(N(Cc2ccccc2)c2ccc(C#N)cc2)nc1C(=O)NS(=O)(=O)Cc1cccc(Cl)c1` : is its EC50 strictly below 100 nM?
Reply | Criterion not met

Ask | Record `Cc1sc(N(CC2CCN(C)CC2)c2ccc(C#N)cc2)nc1C(=O)NS(C)(=O)=O` : is its EC50 strictly below 100 nM?
Reply | Criterion not met

Ask | Record `Cc1sc(N(CCCCO)c2ccc(C#N)cc2)nc1C(=O)NS(C)(=O)=O` : is its EC50 strictly below 100 nM?
Reply | Criterion not met

Ask | Record `Cc1sc(N(CCc2ccc(O)cc2)c2ccc(C#N)cc2)nc1C(=O)NS(C)(=O)=O` : is its EC50 strictly below 100 nM?
Reply | Criterion not met

Ask | Record Cc1sc(N(CC[C@H]2C[C@H](O)CO2)c2ccc(C#N)cc2)nc1C(=O)NS(C)(=O)=O (racemic) : is its EC50 strictly below 100 nM?
Reply | Criterion not met

Ask | Record `COCCCCS(=O)(=O)NC(=O)c1nc(N(Cc2ccc(OC(F)(F)F)cc2)c2ccc(C#N)cc2)sc1C` : is its EC50 strictly below 100 nM?
Reply | Criterion met

Ask | Record `CS(=O)(=O)NC(=O)c1nc(N(Cc2ccccc2)c2ccc(C#N)cc2)sc1Br` : is its EC50 strictly below 100 nM?
Reply | Criterion met

Ask | Record `CCc1oc(N(Cc2ccc(C(F)(F)F)cn2)c2ccc(C#N)cc2)nc1C(=O)NS(C)(=O)=O` : is its EC50 strictly below 100 nM?
Reply | Criterion not met

Ask | Record `Cc1oc(N(CCc2ccc(C#N)cc2)Cc2ccc(Cl)cc2)nc1C(=O)NS(C)(=O)=O` : is its EC50 strictly below 100 nM?
Reply | Criterion met

Ask | Record `CS(=O)(=O)NC(=O)c1nc(N(Cc2ccc(C(F)(F)F)nc2)c2ccc(C#N)cc2)sc1C1CC1` : is its EC50 strictly below 100 nM?
Reply | Criterion not met

Ask | Record `Cc1sc(N(CCc2ccc(Cl)cc2)CC2CCCCC2)nc1C(=O)NS(=O)(=O)C(F)(F)F` : is its EC50 strictly below 100 nM?
Reply | Criterion not met

Ask | Record `Cc1sc(N(CCc2ccc(N(C)C)cc2)c2ccc(C#N)cc2)nc1C(=O)NS(C)(=O)=O` : is its EC50 strictly below 100 nM?
Reply | Criterion not met

Ask | Record `Cc1sc(N(CC2CC2)c2ccc(C#N)cc2)nc1C(=O)NS(C)(=O)=O` : is its EC50 strictly below 100 nM?
Reply | Criterion not met

Ask | Record `Cc1sc(N(CCc2ccncc2)Cc2ccccc2)nc1C(=O)NS(C)(=O)=O` : is its EC50 strictly below 100 nM?
Reply | Criterion not met

---

Kindly state EC50 for each of the entries shown.
- Tested on: human androgen receptor (Homo sapiens, UniProt P10275)
- Construct: expressed in transfected cells; host or cells: HEK293
- Sequence (P10275 whole entry): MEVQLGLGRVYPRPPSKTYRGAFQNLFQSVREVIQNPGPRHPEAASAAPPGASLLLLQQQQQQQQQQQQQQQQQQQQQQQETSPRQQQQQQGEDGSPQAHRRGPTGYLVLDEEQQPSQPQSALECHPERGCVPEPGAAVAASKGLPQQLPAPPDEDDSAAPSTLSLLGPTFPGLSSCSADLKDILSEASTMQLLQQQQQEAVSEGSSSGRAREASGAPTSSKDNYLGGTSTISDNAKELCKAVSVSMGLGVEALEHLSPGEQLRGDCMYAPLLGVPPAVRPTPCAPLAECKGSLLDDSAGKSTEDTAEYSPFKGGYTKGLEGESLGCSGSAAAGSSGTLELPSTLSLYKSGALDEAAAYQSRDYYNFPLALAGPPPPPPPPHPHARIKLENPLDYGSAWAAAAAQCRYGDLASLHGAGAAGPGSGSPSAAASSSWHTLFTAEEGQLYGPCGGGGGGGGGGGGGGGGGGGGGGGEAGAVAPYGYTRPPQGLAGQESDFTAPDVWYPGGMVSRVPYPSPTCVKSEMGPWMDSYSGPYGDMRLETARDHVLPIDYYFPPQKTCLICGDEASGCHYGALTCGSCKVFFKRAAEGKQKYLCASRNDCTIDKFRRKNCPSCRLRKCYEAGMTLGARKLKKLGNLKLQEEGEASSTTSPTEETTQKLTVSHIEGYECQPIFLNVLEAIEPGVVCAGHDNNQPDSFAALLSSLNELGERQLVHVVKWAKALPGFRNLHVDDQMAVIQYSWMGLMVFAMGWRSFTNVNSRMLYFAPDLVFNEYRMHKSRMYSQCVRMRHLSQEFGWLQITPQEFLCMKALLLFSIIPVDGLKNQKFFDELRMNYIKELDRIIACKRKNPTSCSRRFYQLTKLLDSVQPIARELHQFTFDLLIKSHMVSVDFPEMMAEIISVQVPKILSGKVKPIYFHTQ
- Measurement protocol: Reporter assay of an androgen receptor responsive sequence (luciferase, transiently transfected HEK293 cells)
- Assay type: cell-based
- Cond: 24 hours incubation, relative to activity of 100 nM DHT, read-out: AR transcriptive activity (pEC50) (converted)
- Procedure: Reporter Assay of an Androgen Receptor Responsive Sequence To examine the agonist activity of compounds for androgen, a reporter assay using an androgen receptor responsive sequence was conducted. Using Lipofectamine 2000 (Invitrogen), a plasmid mixture (pGL4-ARE (200 ng/well), pcDNA3-hAR (20 ng/well), pRL-TK (Promega) (150 ng/well)) was transiently transfected into HEK293 cells. The contents of the plasmid (mixture) are as follows: […]
Express the result in nM but write the number alone.

Ask | Tell me measured EC50 for `CS(=O)(=O)NC(=O)c1nc(N(Cc2ccc(C(F)(F)F)cn2)c2ccc(C#N)cc2)sc1Br` please.
Reply | 63.1

Ask | Tell me measured EC50 for `COCCCS(=O)(=O)NC(=O)c1nc(N(CCc2ccc(OC(F)(F)F)cc2)Cc2nc(C3CC3)no2)oc1C` please.
Reply | 1580

Ask | Tell me measured EC50 for `COCCCS(=O)(=O)NC(=O)c1nc(N(Cc2cnc(C(F)(F)F)c(Cl)c2)c2ccc(C#N)cc2)sc1C` please.
Reply | 1000

Ask | Tell me measured EC50 for `Cc1sc(N(Cc2ccc(F)cn2)c2ccc(C#N)cc2)nc1C(=O)NS(C)(=O)=O` please.
Reply | 631

---

- Tested on: androgen receptor (AR-LBD) (Rattus norvegicus)
- Construct: 5 μL of 2×AR-LBD/Fluoromone AL Red Complex contained in the kit; purchased Invitrogen
- Sequence (P15207 651-882 limits assumed): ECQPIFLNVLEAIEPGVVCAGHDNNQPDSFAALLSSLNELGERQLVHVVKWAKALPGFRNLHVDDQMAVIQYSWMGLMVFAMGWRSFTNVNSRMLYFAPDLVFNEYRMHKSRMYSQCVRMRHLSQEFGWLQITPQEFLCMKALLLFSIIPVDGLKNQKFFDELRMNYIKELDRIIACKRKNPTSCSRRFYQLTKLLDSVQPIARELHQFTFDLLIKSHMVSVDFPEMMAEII
- Measurement protocol: Evaluation of androgen receptor affinity (PolarScreen Androgen Receptor Competitor Assay Kit, Red; fluorescence polarization)
- Cond: 22° C. for 5 hours, relative to binding rate of 1 μM DHT, read-out: AR affinity (pEC50) (converted)
Kindly state EC50 for each of the entries shown.
Express the result in nM but write the number alone.

Ask | Tell me measured EC50 for Cc1sc(N(Cc2ccc(OCCCN3CCCC3=O)cc2)c2ccc(C#N)cc2)nc1C(=O)NS(C)(=O)=O [Compound 578] please.
Reply | 794

Ask | Tell me measured EC50 for COCCCS(=O)(=O)NC(=O)c1nc(N(Cc2cnc(C(F)(F)F)c(Cl)c2)c2ccc(C#N)cc2)sc1C [Compound 531] please.
Reply | 100

Ask | Tell me measured EC50 for Cc1sc(N(CCn2cc(C#N)cn2)Cc2ccccc2)nc1C(=O)NS(C)(=O)=O [Compound 326] please.
Reply | 631

Ask | Tell me measured EC50 for Cc1sc(N(CCc2cccc(F)c2)Cc2ccccc2)nc1C(=O)NS(C)(=O)=O [Compound 685] please.
Reply | 50.1
